- measuredTarget: Glucose transporter (Leishmania mexicana) (UniProt O61059)
- assayMethodText: ST_JUDE_LEISH: Cytotoxicity at 2uM final concentration against transgenic Leishmania Mexicana promastigotes LmGT2 that are glucose transport deficient and complemented with the L. Mexicana glucose transporter 2. Activity is measured by DNA content using SYBR green in vitro
- Assay type: functional
measuredParameter: inhibition (%)
Return type: number; implicit unit %.

As a guide, the following entries are already answered.
molecule=O=[N+]([O-])c1cccc(NC(=S)N2CCCN(Cc3ccc(C(F)(F)F)cc3)CC2)c1 unitsofmeasure=% observed=3.25
molecule=CCc1ccc(NC(=O)c2cccc(CN3CCCN(Cc4cccc(O)c4)CC3)c2)cc1 unitsofmeasure=% observed=2.2
molecule=CN1CCC(Oc2cc(NC(=O)Nc3ccc(-c4ccncc4)c(Cl)c3)ccc2Cl)CC1 unitsofmeasure=% observed=9.26
molecule=Cc1ccc(-c2ccc(NC(=O)N3CCc4cc(Br)c(N5CCN(C)CC5)cc43)cc2)cn1 unitsofmeasure=% observed=2.24
molecule=N#Cc1cccc(CNC(=O)c2cccc(Nc3ccnc4ccc(F)cc34)c2)c1 unitsofmeasure=% observed=0.82
molecule="CC(CNc1nc(NCC(c2ccccc2)c2ccccc2)c2nc[nH]c2n1)c1ccccc1 (stereo not given)" unitsofmeasure=% observed=3.73
molecule=Cc1ccc(NC(=O)c2c(C)noc2-c2snnc2C)cc1 unitsofmeasure=% observed=3.02
molecule=N#Cc1ccc(-c2ccc(C(=O)NCCCCN3CCC(c4nc5ccccc5[nH]4)CC3)cc2)cc1 unitsofmeasure=% observed=2.69
molecule=COc1ccc(C=Cc2cc(=N)c3ccccc3[nH]2)cc1 unitsofmeasure=% observed=0.89

Please examine the following record next.
Input line: // lookup inhibition for Oc1c(C(Nc2nc3ccccc3s2)c2ccccc2)ccc2cccnc12 (stereo not given)
Output line: -1.54

====

- measuredTarget: Solute carrier family 2, facilitated glucose transporter member 1 (Homo sapiens)
- assayMethodText: ST_JUDE_LEISH: Cytotoxicity at 2uM final concentration against transgenic Leishmania Mexicana promastigotes LmGLUT1 that are glucose transport deficient and complemented with the human glucose transporter GLUT1. Activity is measured by DNA content using SYBR green in vitro
- Assay type: functional
measuredParameter: inhibition (%)
Return type: number; implicit unit %.

As a guide, the following entries are already answered.
compound="N#Cc1ccc(CN2CCC(Oc3ccc(NC(=O)c4cccs4)cc3)C2)cc1 (stereo not given)" observed=2.68
compound=CCCCCCCCCn1c(NCc2cc(Cl)ccc2O)nc2ccccc21 observed=2.6
compound=Cc1ccc2c(c1)nc(N)n2C[C@H](O)c1ccccc1 observed=1.01
compound="Cc1ccc2c(Cl)c(C(=O)N3CC(C)OC(C)C3)sc2c1 (stereo not given)" observed=0.22
compound=CCN1CCN(CCCNc2c3ccc(Cl)cc3nc3ccc(OC)cc23)CC1 observed=9.58

Please examine the following record next.
Input line: // lookup inhibition for "O=C(/C=C/c1ccc(Cl)c(Cl)c1)NCCCCCCN1CCCN(C(=O)Nc2cc(F)cc(F)c2)CC1"
Output line: 0.71

====

- measuredTarget: Glucose transporter (Leishmania mexicana)
- assayMethodText: ST_JUDE_LEISH: Cytotoxicity at 2uM final concentration against transgenic Leishmania Mexicana promastigotes LmGT2 that are glucose transport deficient and complemented with the L. Mexicana glucose transporter 2. Activity is measured by DNA content using SYBR green in vitro
- Type: functional
measuredParameter: inhibition (%)
Return type: number; implicit unit %.

As a guide, the following entries are already answered.
compound="CC1CCc2c(C(=O)N3CCc4ccccc4C3)csc2C1 (stereo not given)" measuredparameter=inhibition unitsofmeasure=% observed=0
compound=CCOC(=O)Nc1cc(-c2csc(N=C(N)N)n2)cc([N+](=O)[O-])c1 measuredparameter=inhibition unitsofmeasure=% observed=1.09
compound=CCC[C@@H]([C@@H](CC(C)C)C(=O)N[C@@H](CCC/N=C(/N)NS(C)(=O)=O)C(=O)Nc1nccs1)N(O)C=O measuredparameter=inhibition unitsofmeasure=% observed=6.5

Input line: Field: inhibition (Glucose transporter (Leishmania mexicana)). Entry: "COc1ccc(S(=O)(=O)NC2CCN(c3ccc(C(F)(F)F)cc3NC(=O)OCC(C)C)CC2)cc1"
Output line: 2.43

Input line: Field: inhibition (Glucose transporter (Leishmania mexicana)). Entry: "FC(F)(F)c1cc(CNCCCNc2nc3ccncc3[nH]2)ccc1Cl"
Output line: 0.35

Input line: Field: inhibition (Glucose transporter (Leishmania mexicana)). Entry: "O=C(/C=C/c1ccc(Cl)c(Cl)c1)NCCCCCN1CCCN(C(=O)Nc2cccc(F)c2)CC1"
Output line: 3.86

Input line: Field: inhibition (Glucose transporter (Leishmania mexicana)). Entry: "COc1cc(C(=O)Nc2cccc(-c3nc4ccccc4[nH]3)c2)ccc1OC(C)=O"
Output line: 0.31
